Listed here are binders together with their documented t1/2 (half-life of the complex, SPR).
Study system: Fc-fusion protein of human carbonic anhydrase IX (human, UniProt Q16790 38-414)
Procedure text: SPR, captured hCAIX-Fc; t1/2 category B: 5.1-15.0 min
Starred links: 1 amine or outer side, 2 acyl side, 3 side chain; linkers in the order of their positions; H or OH if unused. Positions of bridges follow the written chain, without caps; N, C: chain ends. Non-standard residues stand in square brackets, D forms with d. Primed or numbered codes have the meaning given here. *: point of attachment. af3(ac-glu) = lower case: 3-amino-D-phenylalanine, ring amine acylated with N-acetyl-D-glutamic acid, CC(=O)N[C@H](CCC(=O)[*:3])C(=O)Nc1cccc(C[C@@H](N[*:1])C(=O)[*:2])c1; APAc″ = 2-(4-(amino)piperidin-1-yl)acetic acid, NC1CCN(CC(=O)*)CC1; DOTA = O=C(O)CN1CCN(CC(=O)O)CCN(CC(=O)*)CCN(CC(=O)O)CC1; Phe(3-CF3) = N[C@@H](Cc1cccc(C(F)(F)F)c1)C(=O)O; mXylylene = c1cc(C[*:1])cc(C[*:2])c1; dNMeA = CN[C@H](C)C(=O)O; APAc = not defined here; Dap = NC[C@H](N)C(=O)O
Test readout: t1/2 (half-life of the complex, SPR)

[[record]]
binder = "Ac-VYCE[dNMeA]DWLTWAC-NH2 (linker 3-12 via mXylylene; SMILES CC(=O)N[C@H](C(=O)N[C@@H](Cc1ccc(O)cc1)C(=O)N[C@H]1CSCc2cccc(c2)CSC[C@@H](C(N)=O)NC(=O)[C@H](C)NC(=O)[C@H](Cc2c[nH]c3ccccc23)NC(=O)[C@H]([C@@H](C)O)NC(=O)[C@H](CC(C)C)NC(=O)[C@H](Cc2c[nH]c3ccccc23)NC(=O)[C@H](CC(=O)O)NC(=O)[C@@H](C)N(C)C(=O)[C@H](CCC(=O)O)NC1=O)C(C)C) [3BP-3281]"
test_value = "5.1 to 15 min"

[[record]]
binder = "{DOTA-APAc}-VDCE[dP]D[Phe(3-CF3)]LTW[Dap]C-NH2 (lactam 2-11; linker 3-12 via mXylylene; reading uncertain) [3BP-4440]"
test_value = "5.1 to 15 min"

[[record]]
binder = "{DOTA-APAc″}-VYCE[dP]D[af3(ac-glu)]LTWSC-NH2 (linker 3-12 via mXylylene; not fully specified) [3BP-4362]"
test_value = "5.1 to 15 min"

